target-or-system: Protein cereblon/Tyrosine-protein kinase BTK (Homo sapiens, UniProt Q06187+Q96SW2)
Sequence (Q06187 whole entry): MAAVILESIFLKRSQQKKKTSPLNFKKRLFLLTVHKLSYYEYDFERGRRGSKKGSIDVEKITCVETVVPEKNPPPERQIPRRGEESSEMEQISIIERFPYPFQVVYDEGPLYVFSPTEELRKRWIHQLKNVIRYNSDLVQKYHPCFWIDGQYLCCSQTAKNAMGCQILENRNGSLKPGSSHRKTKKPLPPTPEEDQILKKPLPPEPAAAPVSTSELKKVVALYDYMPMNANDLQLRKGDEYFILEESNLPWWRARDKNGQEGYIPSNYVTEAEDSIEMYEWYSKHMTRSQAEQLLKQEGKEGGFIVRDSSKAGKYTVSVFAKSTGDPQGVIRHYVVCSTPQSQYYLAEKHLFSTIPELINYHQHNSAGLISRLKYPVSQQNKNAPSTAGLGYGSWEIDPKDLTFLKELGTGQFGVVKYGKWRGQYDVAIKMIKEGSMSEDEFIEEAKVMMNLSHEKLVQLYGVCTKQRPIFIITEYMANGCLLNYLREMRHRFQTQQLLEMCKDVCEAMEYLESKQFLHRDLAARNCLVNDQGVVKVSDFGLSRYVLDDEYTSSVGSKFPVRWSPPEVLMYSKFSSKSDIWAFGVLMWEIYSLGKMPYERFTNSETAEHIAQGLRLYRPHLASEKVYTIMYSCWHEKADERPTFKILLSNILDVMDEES
Sequence (Q96SW2 whole entry): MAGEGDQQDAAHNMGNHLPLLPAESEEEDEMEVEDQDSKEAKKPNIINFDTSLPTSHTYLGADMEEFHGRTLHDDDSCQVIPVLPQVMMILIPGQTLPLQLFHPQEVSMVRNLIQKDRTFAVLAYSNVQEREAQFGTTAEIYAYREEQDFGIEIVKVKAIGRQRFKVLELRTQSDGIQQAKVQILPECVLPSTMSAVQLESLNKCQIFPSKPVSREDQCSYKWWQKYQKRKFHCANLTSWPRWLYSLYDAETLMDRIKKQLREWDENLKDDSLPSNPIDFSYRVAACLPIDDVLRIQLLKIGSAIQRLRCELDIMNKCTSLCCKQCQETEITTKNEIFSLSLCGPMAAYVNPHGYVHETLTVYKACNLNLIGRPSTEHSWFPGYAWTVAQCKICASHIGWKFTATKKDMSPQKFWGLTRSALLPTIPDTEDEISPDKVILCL
protocol-description: Protac activity at E3 ubiquitin ligase/BTK in human Ramos cells assessed as induction of BTK degradation measured after 16 hrs by ELISA
Format: cell-based
assay-endpoint: DC50 (µM)

The following compounds have reported results that may help.
NC(=O)c1c(-c2ccc(Oc3ccccc3)cc2)nn2c1NCC[C@H]2C1CCN(C(=O)CCc2ccc(N3CCN(c4ccc5c(c4)C(=O)N(C4CCC(=O)NC4=O)C5=O)CC3)cc2)CC1 (stereo not given in full)    0.074
NC(=O)c1c(-c2ccc(Oc3ccccc3)cc2)nn2c1NCC[C@H]2C1CCN(C(=O)CCCc2ccc(NC(=O)CNc3ccc4c(c3)C(=O)N(C3CCC(=O)NC3=O)C4=O)cc2)CC1 (stereo not given in full)    0.028
NC(=O)c1c(-c2ccc(Oc3ccccc3)cc2)nn2c1NCC[C@H]2C1CCN(C(=O)CCCN2CCN(C(=O)CNc3ccc4c(c3)C(=O)N(C3CCC(=O)NC3=O)C4=O)CC2)CC1 (stereo not given in full)    0.035

A = CN(CC1CCN(C(=O)c2ccc(N3CCC(=O)NC3=O)cc2)CC1)C1CC(C(=O)N2CCC([C@@H]3CCNc4c(C(N)=O)c(-c5ccc(Oc6ccccc6)cc5)nn43)CC2)C1 (stereo not given in full)
B = NC(=O)c1c(-c2ccc(Oc3ccccc3)cc2)nn2c1NCC[C@H]2C1CCN(C(=O)c2cn(CCOCCOCC(=O)Nc3ccc4c(c3)C(=O)N(C3CCC(=O)NC3=O)C4=O)nn2)CC1 (stereo not given in full)
Higher DC50 between A and B ? Write down the label attached to your selection.
B

// provenance: ChEMBL document CHEMBL4706737
